Biological target: T1, recombinant human LAG-3-his protein (Novoprotein) (human, UniProt P18627 23-450)
T1 construct: Bought; also called huLAG-3; not shown: His tag
T1 sequence (looked up): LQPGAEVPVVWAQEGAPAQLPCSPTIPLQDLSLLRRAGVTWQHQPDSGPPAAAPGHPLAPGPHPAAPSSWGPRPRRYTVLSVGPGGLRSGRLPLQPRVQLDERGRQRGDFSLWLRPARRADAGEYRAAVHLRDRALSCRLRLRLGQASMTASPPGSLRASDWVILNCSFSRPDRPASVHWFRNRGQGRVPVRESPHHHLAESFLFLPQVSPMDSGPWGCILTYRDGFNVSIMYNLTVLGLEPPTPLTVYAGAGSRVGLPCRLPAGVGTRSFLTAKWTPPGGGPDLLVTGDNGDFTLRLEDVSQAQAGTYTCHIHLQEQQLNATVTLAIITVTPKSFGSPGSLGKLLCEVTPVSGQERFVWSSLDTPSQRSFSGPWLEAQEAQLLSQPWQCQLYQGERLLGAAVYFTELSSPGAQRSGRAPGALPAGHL
Test: BLI Octet, Ab on AHC sensor, huLAG-3-his; test group 1
Experimental: All 9 humanized antibodies (Table 25) and a chimeric antibody having the parental murine VH and VL domains (mAb747c) were ranked by dissociation rate constant (koff). Briefly, antibodies were characterized for affinities and binding kinetics by Octet RED96 biolayer interferometry (Pall FortéBio LLC). […] Binding was measured by dipping sensors into a single concentration of recombinant human LAG-3-his protein (Novoprotein). […]
Can you tell me koff for the items I'm about to list?
Reply with just the number (in s⁻¹).

-- ask Could you share which koff value was measured for mAb747c (antibody, V domains shown, also called mAb717c) VH: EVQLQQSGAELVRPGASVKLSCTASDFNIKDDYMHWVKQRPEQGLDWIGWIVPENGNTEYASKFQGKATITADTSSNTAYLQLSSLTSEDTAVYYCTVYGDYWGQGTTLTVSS VL: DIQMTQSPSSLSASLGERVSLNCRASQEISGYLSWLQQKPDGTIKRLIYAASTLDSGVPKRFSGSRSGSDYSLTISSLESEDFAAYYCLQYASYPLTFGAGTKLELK ?
-- reply 0.000615

-- ask Could you share which koff value was measured for HumAb747V-63 (antibody, human IgG1, V domains shown, engineered HumAb747-60 variant; human IgG1/kappa constant domains) VH: EVQLVQSGAEVKKPGATVKLSCTASGFNIKDDYMHWVKQRPEQGLDWIGWIVPRNGNTMYASKFQGKATITADTSTNTAYLELSSLRSEDTAVYYCTVYGDYWGQGTTVTVSS VL: DIQMTQSPSSLSASVGDRVTITCRASQEISGYLSWLQQKPGGAIKRLIYAASALDSGVPSRFSGSRSGSDYTLTISSLQPEDFADYYCLQYASYPLTFGQGTKLELK ?
-- reply 0.000522

-- ask Could you share which koff value was measured for HumAb747V-62 (antibody, human IgG1, V domains shown, engineered HumAb747-60 variant; human IgG1/kappa constant domains) VH: EVQLVQSGAEVKKPGATVKLSCTASGFNIKDDYMHWVKQRPEQGLDWIGWIVPRNGNTMYASKFQGKATITADTSTNTAYLELSSLRSEDTAVYYCTVYGDYWGQGTTVTVSS VL: DIQMTQSPSSLSASVGDRVTITCRASQEISGYLSWLQQKPGGAIKRLIYAASTLDLGVPSRFSGSRSGSDYTLTISSLQPEDFADYYCLQYASYPLTFGQGTKLELK ?
-- reply 0.00048

-- ask Could you share which koff value was measured for HumAb747V-66 (antibody, human IgG1, V domains shown, engineered HumAb747-60 variant; human IgG1/kappa constant domains) VH: EVQLVQSGAEVKKPGATVKLSCTASGFNIKDDYMHWVKQRPEQGLDWIGWIVPENGNTVYASKFQGKATITADTSTNTAYLELSSLRSEDTAVYYCTVYGDYWGQGTTVTVSS VL: DIQMTQSPSSLSASVGDRVTITCRASQEISGYLSWLQQKPGGAIKRLIYAASTLDLGVPSRFSGSRSGSDYTLTISSLQPEDFADYYCLQYASYPLTFGQGTKLELK ?
-- reply 0.000584
